# Assay remarks: 1-Octanol-water partition coefficient, logP of the compound incubated for 24 hrs by HPLC analysis
# Type: physicochemical
Metric: logP at 24 h

INSERT INTO results (compound, metric, recorded_measurement) VALUES
  ('O=C(CNc1cccc(-c2cc(-c3ccc4c(c3)OCO4)n[nH]2)c1)NCCOCCOCCOCCNc1cccc2c1C(=O)N(C1CCC(=O)NC1=O)C2=O (stereo unspecified)', 'logP at 24 h', 2.04);
